Value source: ChEMBL document CHEMBL1148277

Entries and their pKi
# target.desc: UniProt P23977
# Sequence (P23977 whole entry): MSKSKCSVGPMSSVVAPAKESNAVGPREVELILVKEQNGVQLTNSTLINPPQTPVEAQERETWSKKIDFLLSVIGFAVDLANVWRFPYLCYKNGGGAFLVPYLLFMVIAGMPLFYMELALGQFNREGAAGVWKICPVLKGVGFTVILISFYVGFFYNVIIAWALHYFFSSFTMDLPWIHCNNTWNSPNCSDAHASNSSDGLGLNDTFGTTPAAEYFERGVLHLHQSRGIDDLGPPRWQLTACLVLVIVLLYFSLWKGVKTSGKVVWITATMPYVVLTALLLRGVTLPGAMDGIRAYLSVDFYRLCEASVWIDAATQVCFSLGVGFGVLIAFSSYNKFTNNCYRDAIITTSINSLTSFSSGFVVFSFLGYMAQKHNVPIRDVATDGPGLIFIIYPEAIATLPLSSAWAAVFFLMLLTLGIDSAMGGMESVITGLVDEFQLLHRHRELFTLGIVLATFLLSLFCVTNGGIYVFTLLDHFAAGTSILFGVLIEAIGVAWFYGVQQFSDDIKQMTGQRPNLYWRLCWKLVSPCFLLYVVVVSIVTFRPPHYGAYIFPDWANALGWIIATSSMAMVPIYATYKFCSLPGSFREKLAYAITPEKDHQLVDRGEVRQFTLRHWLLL
# method: Reuptake inhibitory activity against dopamine DA transporter
# log scale: pKi equals minus log10 of the concentration in mol/L

test.smiles	readout.value
CN[C@H]1C[C@H](c2ccc(Cl)c(Cl)c2)c2ccc(OC)cc21	6.22

// next entry
Query block: Fill blank: measured pKi of the compound CN[C@@H]1C[C@@H](c2ccc(Cl)c(Cl)c2)c2ccc(OC)cc21 is ____.
Result block: 7.92

###

# target.desc: Sodium-dependent serotonin transporter (Rattus norvegicus, UniProt P31652)
# Sequence (P31652 whole entry): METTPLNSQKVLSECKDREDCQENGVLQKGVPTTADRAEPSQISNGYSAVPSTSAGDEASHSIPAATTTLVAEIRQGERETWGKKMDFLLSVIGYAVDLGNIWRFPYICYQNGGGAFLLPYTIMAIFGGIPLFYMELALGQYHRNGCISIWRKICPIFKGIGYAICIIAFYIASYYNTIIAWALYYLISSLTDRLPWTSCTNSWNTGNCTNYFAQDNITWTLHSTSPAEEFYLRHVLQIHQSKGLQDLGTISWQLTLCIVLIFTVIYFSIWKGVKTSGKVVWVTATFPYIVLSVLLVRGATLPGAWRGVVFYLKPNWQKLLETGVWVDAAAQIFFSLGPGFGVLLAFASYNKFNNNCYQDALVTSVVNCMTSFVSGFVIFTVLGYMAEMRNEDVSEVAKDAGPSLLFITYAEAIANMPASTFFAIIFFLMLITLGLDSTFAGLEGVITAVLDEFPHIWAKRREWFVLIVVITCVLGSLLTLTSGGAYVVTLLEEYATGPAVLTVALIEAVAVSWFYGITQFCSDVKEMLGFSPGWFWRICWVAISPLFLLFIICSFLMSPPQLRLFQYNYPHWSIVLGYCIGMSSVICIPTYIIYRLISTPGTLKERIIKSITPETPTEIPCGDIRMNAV
# method: Reuptake inhibitory activity against Serotonin transporter
reported.metric: Ki (nM)
Answer with a number only, understood to be in nM.

test.smiles	value.unit	Ki
CN[C@H]1C[C@H](c2ccc(Cl)c(Cl)c2)c2ccc(OC)cc21	nM	109

// next entry
Query block: Value wanted: Ki (Sodium-dependent serotonin transporter (Rattus norvegicus, UniProt P31652)) of entry CN[C@@H]1C[C@@H](c2ccc(Cl)c(Cl)c2)c2ccc(OC)cc21
Result block: 19

###

# target.desc: UniProt:P31652
# method: Displacement of [125I]RTI-55 from serotonin transporter of frozen rat caudate membranes
# Type: cell membranes, Membrane
Entries and their Ki
Answer with a number only, understood to be in nM.

Reference set, count: 2
compound	target.desc	Ki, nM
CNC1CC(c2ccc(Cl)c(Cl)c2)c2ccc(OC)cc21 (trans isomer)	UniProt:P31652	1.1
CN[C@@H]1C[C@@H](c2ccc(Cl)c(Cl)c2)c2ccc(OC)cc21	UniProt:P31652	0.7

Query block: Value wanted: Ki (UniProt:P31652) of entry CCN(CC)C1CC(c2ccc(Cl)c(Cl)c2)c2ccc(OC)cc21 (cis isomer)
Result block: 26

Query block: And for CNC1CC(c2ccc(Cl)c(Cl)c2)c2ccc(O)cc21 (trans isomer) ?
Result block: 3

Query block: And for CCN(CC)C1CC(c2ccc(Cl)c(Cl)c2)c2ccc(O)cc21 (trans isomer) ?
Result block: 0.7

Query block: And for CCN(CC)C1CC(c2ccc(Cl)c(Cl)c2)c2ccc(OC)cc21 (trans isomer) ?
Result block: 1.3

###

Entries and their Ki
# target.desc: Sodium-dependent serotonin transporter (Rattus norvegicus, UniProt P31652)
# method: Displacement of [125I]RTI-55 from serotonin transporter of frozen rat caudate membranes
# Type: cell membranes, Membrane

compound	Ki
CN[C@H]1C[C@H](c2ccc(Cl)c(Cl)c2)c2ccc(OC)cc21	0.051 µM

Query block: Value wanted: Ki (Sodium-dependent serotonin transporter (Rattus norvegicus, UniProt P31652)) of entry CNC1CC(c2ccc(Cl)c(Cl)c2)c2ccc(OC)cc21 (cis isomer)
Result block: 0.0003 µM

###

# target.desc: Norepinephrine transporter (Rattus norvegicus, UniProt Q9WTR4)
# Sequence (Q9WTR4 whole entry): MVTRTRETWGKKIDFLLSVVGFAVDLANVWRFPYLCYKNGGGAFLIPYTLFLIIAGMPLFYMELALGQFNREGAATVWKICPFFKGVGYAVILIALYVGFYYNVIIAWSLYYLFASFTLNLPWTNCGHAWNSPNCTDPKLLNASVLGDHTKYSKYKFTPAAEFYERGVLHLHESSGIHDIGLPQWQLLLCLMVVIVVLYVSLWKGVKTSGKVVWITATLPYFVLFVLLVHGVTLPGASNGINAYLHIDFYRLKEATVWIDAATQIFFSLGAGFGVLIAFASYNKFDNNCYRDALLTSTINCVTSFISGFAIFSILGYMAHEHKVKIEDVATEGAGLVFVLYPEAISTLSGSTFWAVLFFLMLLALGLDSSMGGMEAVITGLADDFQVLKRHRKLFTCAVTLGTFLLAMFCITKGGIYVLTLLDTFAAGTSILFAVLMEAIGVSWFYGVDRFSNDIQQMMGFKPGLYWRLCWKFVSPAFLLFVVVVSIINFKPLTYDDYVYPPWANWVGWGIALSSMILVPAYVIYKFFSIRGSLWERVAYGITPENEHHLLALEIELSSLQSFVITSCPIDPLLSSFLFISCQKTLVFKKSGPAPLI
# method: Reuptake inhibitory activity against NE transporter
# Type: functional
Entries and their Ki
Answer with a number only, understood to be in nM.

test.smiles	reported.metric	readout.value
CN[C@@H]1C[C@@H](c2ccc(Cl)c(Cl)c2)c2ccc(OC)cc21	Ki	34

// next entry
Query block: Fill blank: measured Ki of the compound CN[C@H]1C[C@H](c2ccc(Cl)c(Cl)c2)c2ccc(OC)cc21 is ____.
Result block: 650
